- test-name: Plasma clearance in iv or po dosed Sprague-Dawley rat
- Assay type: ADME, organism-based
reported-endpoint: clearance (mL/min/kg)

substance-smiles: O=C1[C@@H](NS(=O)(=O)c2ccc3cc(Cl)ccc3c2)CCN1c1ccc2c(c1F)CCNC2
clearance [mL/min/kg]: 2.1

[P] O=C1[C@@H](NS(=O)(=O)c2ccc3c(Cl)c[nH]c3c2)CCN1c1ccc2c(c1F)CCNC2
[Q] O=C1[C@@H](NS(=O)(=O)/C=C/c2ccc(Cl)s2)CCN1c1ccc2c(c1)CCCNC2
[R] O=C1[C@@H](NS(=O)(=O)c2ccc3cc[nH]c3c2)CCN1c1ccc2c(c1)CCNC2
With regard to clearance, arrange the entries in ascending order, please. Your task in answering is to list the labels in the requested order.
P, Q, R
(P: 2.7 mL/min/kg, Q: 7.8 mL/min/kg, R: 12 mL/min/kg)

----------
- test-name: Oral bioavailability in Sprague-Dawley rat
- Format: ADME, organism-based
- test-parameters: in vivo
reported-endpoint: bioavailability

substance-smiles: CN[C@@H](C)c1ccc(N2CC[C@H](NS(=O)(=O)c3ccc4cc(Cl)ccc4c3)C2=O)c(F)c1
bioavailability: > 10%

Look up bioavailability for this compound: O=C1[C@@H](NS(=O)(=O)c2ccc3cc[nH]c3c2)CCN1c1ccc2c(c1)CCNC2
< 1%

Look up bioavailability for this compound: O=C1[C@@H](NS(=O)(=O)c2ccc3c(Cl)c[nH]c3c2)CCN1c1ccc2c(c1)CCNC2
< 1%
